# Tested on: Ventricle
# EXPERIMENT_SUMMARY: Effects on the effective refractory period, ventricle (anesthetized beagles, vagal nerve stimulation, S1-S2 extrastimulus)
# Type: in vivo
# SETUP_CONDITIONS: 0.3 mg/kg intravenously, from 5 min after administration, basic cycle length 300 msec, bilateral vagal nerve stimulation, ERP after minus before drug
PROPERTY: prolongation time on the effective refractory period (msec) Ventricle
Answer format: value, then unit.

CC1(C)Oc2cc([N+](=O)[O-])ccc2[C@H](NCCc2ccccc2)[C@H]1O [compound 6] | 9 ms

Below are some compounds; for each one, tell me its prolongation time on the effective refractory period (msec) Ventricle.
1. CC1(C)Oc2ccc(C(N)=O)cc2[C@H](NCCc2ccc(F)cc2)[C@H]1O [compound 4]
2. Cc1ccc2c(c1)[C@H](NCCc1ccc(Cl)cc1)[C@@H](O)C(C)(C)O2 [compound 2]

Outgoing:
["-10 ms", "4 ms"]

Incoming: Fill blank: measured prolongation time on the effective refractory period (msec) Ventricle of the compound CC1(C)Oc2ccc(C(N)=O)cc2[C@H](NCCc2ccccc2)[C@H]1O [compound 3] is ____.
Outgoing: 4 ms
